Data provenance is ChEMBL document CHEMBL3046644.

Target: Collagenase ColG (Clostridium histolyticum, UniProt Q9X721)
Sequence (Q9X721 whole entry): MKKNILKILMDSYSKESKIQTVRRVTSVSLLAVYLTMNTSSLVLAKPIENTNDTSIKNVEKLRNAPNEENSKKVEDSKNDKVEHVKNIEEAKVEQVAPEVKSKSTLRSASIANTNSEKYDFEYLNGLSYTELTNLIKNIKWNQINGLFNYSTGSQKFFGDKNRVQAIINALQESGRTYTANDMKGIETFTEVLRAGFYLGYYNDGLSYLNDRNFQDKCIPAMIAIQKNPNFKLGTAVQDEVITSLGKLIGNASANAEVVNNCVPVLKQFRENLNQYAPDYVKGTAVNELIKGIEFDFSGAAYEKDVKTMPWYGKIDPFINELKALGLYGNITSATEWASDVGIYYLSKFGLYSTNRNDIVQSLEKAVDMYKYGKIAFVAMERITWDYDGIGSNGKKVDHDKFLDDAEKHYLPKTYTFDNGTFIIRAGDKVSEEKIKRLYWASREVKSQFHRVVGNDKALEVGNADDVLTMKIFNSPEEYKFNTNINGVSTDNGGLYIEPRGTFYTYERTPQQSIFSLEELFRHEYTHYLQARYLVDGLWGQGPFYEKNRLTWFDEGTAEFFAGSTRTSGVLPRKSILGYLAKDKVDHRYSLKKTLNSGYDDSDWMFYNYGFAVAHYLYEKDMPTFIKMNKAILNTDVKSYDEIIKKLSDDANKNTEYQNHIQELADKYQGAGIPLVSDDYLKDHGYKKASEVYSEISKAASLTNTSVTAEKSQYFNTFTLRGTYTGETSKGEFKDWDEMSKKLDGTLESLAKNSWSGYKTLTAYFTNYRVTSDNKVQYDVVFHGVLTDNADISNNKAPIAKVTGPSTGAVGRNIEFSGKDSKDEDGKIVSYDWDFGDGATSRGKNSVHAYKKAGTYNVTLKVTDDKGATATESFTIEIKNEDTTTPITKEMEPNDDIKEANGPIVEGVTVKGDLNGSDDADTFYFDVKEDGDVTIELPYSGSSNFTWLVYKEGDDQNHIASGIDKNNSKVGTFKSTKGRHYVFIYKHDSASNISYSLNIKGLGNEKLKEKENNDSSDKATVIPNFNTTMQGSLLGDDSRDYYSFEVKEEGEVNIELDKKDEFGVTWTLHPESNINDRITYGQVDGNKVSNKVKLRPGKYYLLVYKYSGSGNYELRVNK
Experiment: Inhibition of Clostridium histolyticum collagenase after 15 min
Parameters: species or system Hathewaya histolytica
pIC50: −log10 of the molar value.
Quick list: pIC50 per entry.
endpoint_label: pIC50

[
  {
    "cpd_smiles": "c1cnc2c(c1)ccc1cccnc12",
    "endpoint_label": "pIC50",
    "value": 3.73
  },
  {
    "cpd_smiles": "O=c1cccccc1O",
    "endpoint_label": "pIC50",
    "value": 4.33
  },
  {
    "cpd_smiles": "CC(C)c1cccc(=O)c(O)c1",
    "endpoint_label": "pIC50",
    "value": 4.62
  }
]

----------
Reported IC50 values, Thermolysin (Bacillus thermoproteolyticus, UniProt P00800).
endpoint_label: IC50 (µM)

[
  {
    "compound": "CC(C)c1cccc(=O)c(O)c1 [HINOKITIOL]",
    "value": 61
  },
  {
    "compound": "O=c1cccccc1O [TROPOLONE]",
    "value": 71.1
  },
  {
    "compound": "c1cnc2c(c1)ccc1cccnc12 [PHENANTHROLINE]",
    "value": 360
  }
]
